Here the recorded RSD% values for 24-hour stability is given for each entry.
- Method Description: Stability of sample solutions at room temperature by HPLC
- Format: physicochemical
- Run Conditions: sample solution at room temperature, HPLC at 0, 1, 2, 4, 6, 12 and 24 h
The reply should be a number in %, with the unit left off.

>>> observed_measurement("O=c1cc(-c2ccc(O)cc2)oc2c([C@@H]3O[C@H](CO)[C@@H](O)[C@H](O)[C@H]3O[C@@H]3O[C@H](CO)[C@H](O)[C@H](O)[C@H]3O)c(O)cc(O)c12")
2.65
>>> observed_measurement("COc1cc(O)c2c(=O)cc(-c3ccc(O)c(O)c3)oc2c1[C@@H]1O[C@H](CO)[C@@H](O)[C@H](O)[C@H]1O")
2.95
>>> observed_measurement("CCC(C)C(=O)O[C@@H]1[C@@H](O)[C@H](O)[C@@H](CO)O[C@H]1c1c(OC)cc(O)c2c(=O)cc(-c3ccc(O)cc3)oc12 (stereo partly shown)")
3.89
>>> observed_measurement("O=c1cc(-c2ccc(O)c(O)c2)oc2c([C@@H]3O[C@H](CO)[C@@H](O)[C@H](O)[C@H]3O)c(O)cc(O)c12")
2.35
>>> observed_measurement("COc1cc(O)c2c(=O)cc(-c3ccc(O)cc3)oc2c1[C@@H]1O[C@H](CO)[C@@H](O)[C@H](O)[C@H]1O")
2.82

Asked: Look at this molecule and give its reported RSD% values for 24-hour stability. "O=c1cc(-c2ccc(O)cc2)oc2c([C@@H]3O[C@H](CO)[C@@H](O)[C@H](O)[C@H]3O)c(O)cc(O)c12"
Given back: 2.42

Asked: Look at this molecule and give its reported RSD% values for 24-hour stability. "O=c1cc(-c2ccc(O)c(O)c2)oc2c([C@@H]3O[C@H](CO)[C@@H](O)[C@H](O)[C@H]3O[C@@H]3O[C@H](CO)[C@H](O)[C@H](O)[C@H]3O)c(O)cc(O)c12"
Given back: 2.86
